- Assay: OV-SAHO Cancer Cell Toxicity qHTS against the NCATS CANVASS Library (AID 1347348); also: nearly all actives have a fitted effect of over 55% in size
- Assay conditions: OV-SAHO viability, CellTiter-Glo luminescence, 72 h; series mostly up to 38.3 µM
Records with an inconclusive call do not appear. The source made the active and inactive calls. Calls follow the shape of the dose curve; as a rule, active = well fitted cell-killing curve with a large enough effect; inconclusive = small, poorly fitted or top-dose-only effect; inactive = flat fitted curve, though single readings scatter.
Pick one and only one: active, inactive

Hi, do you know how "C[C@@H]1C(=O)[C@]23CC[C@H]1C[C@]21O[C@H]2C(C)(C)C=CC(=O)[C@]23COC1=O" came out in this test?
inactive

Test call, this molecule: "CC1=CC2=C[C@H](C)C[C@@]23OC(=C(C)C3=O)CC(C)(C)/C=C/C1=O"
active

Which outcome did this test record for the molecule "C/C=C/C(=O)[C@@H](C)C1=CC(=O)C2=C(O[C@@]34CC[C@H](O)C(C)(C)[C@@H]3CC[C@H](C)[C@@]4(C)C2)C1=O" ?
active

# lookup: test call for "C=C1C(=O)O[C@H]2[C@H]1CC/C(CO)=C\CC[C@@]1(C)O[C@@H]21"
active

Identify the outcome logged in this assay for the molecule shown: "CC(C)=CCC/C(C)=C/Cc1c(O)c(CC=C(C)C)c(O)c2c(=O)c3cc(O)ccc3oc12"
active

What classification did "C[C@@]12C[C@@H](C[C@H]3C(=O)O[C@@H](c4ccoc4)[C@H](OC(=O)c4ccccc4)[C@@H]31)OC2=O" end up with in this test?
inactive

Test call, this molecule: "CC(=O)O[C@@H]1C=C2C(=O)OC[C@]2(O)[C@@]2(C)CCCC(C)(C)[C@H]12"
active

Called result for "CC1(C)C=Cc2c(ccc3c2OC[C@@H](c2ccc(O)cc2O)C3)O1"
inactive

Record lookup: outcome of this test for CC1(C)CCC[C@]2(C)[C@@H]1CC[C@@]13C[C@@H](CC[C@H]12)C(C)(O)C3 (stereo partly drawn) ?
inactive

Test call for this molecule, please: C=C1C[C@@]23C=CC(=O)[C@@](C)(CCC(=O)Nc4c(O)ccc(C(=O)O)c4O)C2C[C@@H]1CC3 (stereo partly drawn)
inactive

Identify the outcome logged in this assay for the molecule shown: "C=C1C(=O)C[C@H]2C[C@@H]1[C@]2(C)CCC=C(C)C"
inactive

Hi, do you know how "O=Cc1ccc2n1C[C@@]1(C[C@H](O)[C@@H](CO)O1)OC2" came out in this test?
inactive

// param item: Oc1ccc(C2c3c(O)cc(O)cc3[C@@H]3C(c4ccc(O)cc4)c4c(O)cc(O)cc4[C@H]23)cc1 (stereo partly drawn) ; yields the recorded call
inactive

Dear colleague, could you share the recorded outcome for "CCCCCCCCC[C@@H]1C[C@@H]2CC[C@H]3[C@@H](C(=O)OCCCCN=C(N)N)[C@@H](C)N=C(N1)N23" when you have a moment?
active

Could you kindly confirm the outcome this assay logged for "O=c1cc(-c2ccc(O)c(O[C@@H]3O[C@H](CO)[C@@H](O)[C@H](O)[C@H]3O)c2)oc2cc(O[C@@H]3O[C@H](CO)[C@@H](O)[C@H](O)[C@H]3O)cc(O)c12" ?
inactive

State the result this test recorded for Oc1ccc(/C=C2/c3cc(O)cc(O)c3C(c3ccc(O)cc3)[C@H]2c2cc(O)cc(O)c2)cc1 (stereo partly drawn) .
active

Per the records of this test, what outcome belongs to O=c1cc(-c2ccc(O)cc2)oc2c([C@@H]3OC(CO)[C@H](O)[C@@H](O)[C@H]3O)c(O)cc(O)c12 (stereo partly drawn) ?
inactive

Hello, I am checking results. What call was entered for "C[C@@H]1O[C@@H](Oc2c(-c3ccc(O)cc3)oc3cc(O)cc(O)c3c2=O)[C@H](O)[C@H](O)[C@H]1O" ?
inactive

Cited source: PubChem BioAssay (NCATS)
